condition parameters: Crystal; DTA
reported metric: Triple point temperature (K)

| chemical structure | Triple point temperature [K] |
| --- | --- |
| CCCCCCCCO | 258.03 |
| CCCCCCCCCCO | 278.67 |
| CCCCCCCCCO | 268.1 |
| CCCCCCCCCCCO | 289.63 |
